- target-or-system: human GLP-1 receptor (human, UniProt P43220 24-463)
- test-description: cell-based or functional assay
Readings of cAMP Emax (1.0% HSA) for the listed binders
measured-parameter: cAMP Emax (1.0% HSA) (%)

{"binder": "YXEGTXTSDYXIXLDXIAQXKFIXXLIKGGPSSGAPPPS (Y-Aib-EGT-αMeF(2F)-TSDY-Aib-I-αMeL-LD-Orn-IAQ-Aib-K((2-[2-(2-Amino-ethoxy)-ethoxy]-acetyl)2-(γ-Glu)-(10-(4-carboxyphenoxy)decanoyl))FI-(D-Glu)-αMeY-LIK((2-[2-(2-Amino-ethoxy)-ethoxy]-acetyl)2-(γ-Glu)-(10-(4-carboxyphenoxy)decanoyl))GGPSSGAPPPS-NH2) [Example 240]", "numeric-result": 107}
{"binder": "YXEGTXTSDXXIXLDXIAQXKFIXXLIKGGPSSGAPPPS (Y-Aib-EGT-αMeF(2F)-TSD-4Pal-Aib-I-αMeL-LD-Orn-IAQ-Aib-K((2-[2-(2-Amino-ethoxy)-ethoxy]-acetyl)2-(γ-Glu)-CO-(CH2)12-CO2H)FI-(D-Glu)-αMeY-LIK((2-[2-(2-Amino-ethoxy)-ethoxy]-acetyl)2-(γ-Glu)-CO-(CH2)12-CO2H)GGPSSGAPPPS-NH2) [Example 220]", "numeric-result": 110}
{"binder": "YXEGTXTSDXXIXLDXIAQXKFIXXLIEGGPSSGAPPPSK (Y-Aib-EGT-αMeF(2F)-TSD-4Pal-Aib-I-αMeL-LD-Orn-IAQ-Aib-K((2-[2-(2-Amino-ethoxy)-ethoxy]-acetyl)-(γ-Glu)-CO-(CH2)12-CO2H)FI-(D-Glu)-αMeY-LIEGGPSSGAPPPSK((2-[2-(2-Amino-ethoxy)-ethoxy]-acetyl)-(γ-Glu)-CO-(CH2)12-CO2H)-NH2) [Example 341]", "numeric-result": 113}
{"binder": "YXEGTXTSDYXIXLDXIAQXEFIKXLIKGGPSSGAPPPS (Y-Aib-EGT-αMeF(2F)-TSDY-Aib-I-αMeL-LD-Orn-IAQ-Aib-EFIK(2-[2-(2-Amino-ethoxy)-ethoxy]-acetyl)3-(γ-Glu)-(10-(4-carboxyphenoxy)decanoyl)-αMeY-LIK((2-[2-(2-Amino-ethoxy)-ethoxy]-acetyl)3-(γ-Glu)-(10-(4-carboxyphenoxy)decanoyl)GGPSSGAPPPS-NH2)) [Example 346]", "numeric-result": 97.7}
{"binder": "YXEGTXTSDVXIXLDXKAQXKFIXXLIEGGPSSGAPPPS (Y-Aib-EGT-αMeF(2F)-TSDV-Aib-I-αMeL-LD-Orn-K((2-[2-(2-Amino-ethoxy)-ethoxy]-acetyl)2-(γ-Glu)-(10-(4-carboxyphenoxy)decanoyl))AQ-Aib-K((2-[2-(2-Amino-ethoxy)-ethoxy]-acetyl)2-(γ-Glu)-(10-(4-carboxyphenoxy)decanoyl))FI-(D-Glu)-αMeY-LIEGGPSSGAPPPS-NH2) [Example 319]", "numeric-result": 114}
{"binder": "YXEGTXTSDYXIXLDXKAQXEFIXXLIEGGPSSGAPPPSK (Y-Aib-EGT-αMeF(2F)-TSDY-Aib-I-αMeL-LD-Orn-K((2-[2-(2-Amino-ethoxy)-ethoxy]-acetyl)2-(γ-Glu)-CO-(CH2)12-CO2H)AQ-Aib-EFI-(D-Glu)-αMeY-LIEGGPSSGAPPPSK((2-[2-(2-Amino-ethoxy)-ethoxyl-acetyl)2-(γ-Glu)-CO-(CH2)12-CO2H)-NH2) [Example 232]", "numeric-result": 95.4}
